The origin of these recorded values is BindingDB's records for doi:10.1016/s0014-2999(99)00610-x.

Here's what we have: Ki numbers for Mu-type opioid receptor (Cavia porcellus).
Answers are plain numbers, in nM.

{"columns": ["compound", "testTarget", "Ki [nM]"],
 "data": [
  ["C[C@@H](O)[C@H](NC(=O)[C@H]1NC(=O)[C@H]([C@@H](C)O)NC(=O)[C@H](CCCN=C(N)N)NC(=O)[C@@H](Cc2c[nH]c3ccccc23)NC(=O)[C@H](Cc2ccc(O)cc2)NC(=O)[C@@H](NC(=O)[C@H](N)Cc2ccccc2)CSSC1(C)C)C(N)=O", "Mu-type opioid receptor (Cavia porcellus)", 48.1],
  ["C[C@@H](NC(=O)[C@@H](N)Cc1ccc(O)cc1)C(=O)NCC(=O)N(C)[C@@H](Cc1ccccc1)C(=O)NCCO", "Mu-type opioid receptor (Cavia porcellus)", 2.6],
  ["COc1cccc2c1[C@]13CCN(CC4CC4)C(C2)[C@]1(OC)CCC(=O)C3", "Mu-type opioid receptor (Cavia porcellus)", 26.6]
]}

GET /value?item= CN1CC[C@]23c4c5ccc(O)c4O[C@H]2[C@@H](O)CCC3[C@H]1C5 (some centres undefined) [DIHYDROMORPHINE] &field=Ki returns 6
